The origin of these recorded values is the nanobody polyreactivity screen of Harvey et al. (2022).

run_description: yeast display, Sf9 membrane polyspecificity reagent, FACS + sequencing; frameworks hold sequencing errors
recorded_metric: polyreactivity (PSR sort gate)

INSERT INTO results (chain_sequence, recorded_metric, result) VALUES
  ('QVQLVESGGGLVQAGGILRLSCAASGLTFYGYAMGWYRQAPGKERELVAAITRGGGSTYYADSVKGRFTISRDNAKNTVYLQMNSLKPDDTAVYYCAADQTGWGDTYYYWGQGTQVTVSS', 'polyreactivity (PSR sort gate)', 'low polyreactivity'),
  ('QVQLVESGGGLVPAGGSLRLSCAASGRIFGWYAMGWYRQAPGKEREFVAAITVTGGSTYYADSVKGRFTISRDNAKNTVYLQMNSLKPEDTAVYYCAADRWYTRTGFDYWGQGTQVTVSS', 'polyreactivity (PSR sort gate)', 'low polyreactivity'),
  ('QVHLVESGGGLVQAGGSLRLSCAASGSTSNYYVKVWYGQAPGKERELVASISSGGSTNYADSVKGRFSISRDNAKNSVYLQKNSLKPEDTAVYYCARRRFTHRRYRFDFWGQGTQVTVSS', 'polyreactivity (PSR sort gate)', 'high polyreactivity'),
  ('QVQLVESGGGLVQAGGSLRLSCASSGHIFTRNAMGWYIQAPGKERELVAAISRTGGSTYYADSVKGRFTISRDNAKNTVYLQMNSLKPEDTAVYYCNARGTYTSRRGYDYWGQGTQVTVSS', 'polyreactivity (PSR sort gate)', 'high polyreactivity'),
  ('QVQLVESGGGLVQAGGSLRLSCAASGFIFKYYAMGWYRQAPGKERELVAAIRSGGGTNYADSVKGRFTISRDNAKNTVYLQMNSLKPEDTAVYYCAARGYTSYKHFGYWGQGTQVTVSS', 'polyreactivity (PSR sort gate)', 'high polyreactivity'),
  ('QVQLVESGGGLVQAGGSLRLSCAASGRTFVRNAMGWYRQAPGKERELVAAISGSAGRTYYADSVKGRFTISRDNAKNTVYLQMNSLKPEDTAVYYCAKDTTVYGYYYWGQGTQVTVSS', 'polyreactivity (PSR sort gate)', 'high polyreactivity'),
  ('QVQIVESGGGLVQAGGSLRLTCAASGFTFGPYAMGWYRQEPGKERELVAAITVNGSSTYADSVKGRFTISRDNAKNTVVLQMNSLKPEDTAVYYCAATVYPGGPYGGDSDYWGQGTQVTVSS', 'polyreactivity (PSR sort gate)', 'low polyreactivity'),
  ('QVQLVESGGGLVQAGGSLRLSCAASGFIFLEYAMGWYRQAPGKERELVAAISSRGTRTYYADSVKGRFTISRDNAKNTVYLQMNSLKPEDSAVYYCARVWSQSSNYEYDYWGQGTQVTVSS', 'polyreactivity (PSR sort gate)', 'high polyreactivity'),
  ('QVQLVESGGGLVQAGGSLRLTCAASGRICSNYAMGWYRPARGKERELLAAITVIGGRTYYADSVKGRFTISRDNPKNTVYLHMNSPKPEDTAVYYCAATPRRPWFYGSDYWGQGTQVTVSS', 'polyreactivity (PSR sort gate)', 'high polyreactivity'),
  ('QVQLVESGGGLVQAGGSLRLSCAASGLTFIHYAMGWYRQAPGKEREFVAAISTNSGSTYYADSVKGRFTISRDNAKNTVYLQMNSLKPEDTAVYYCAARGLRWRIDGEYWGQGTQVTVSS', 'polyreactivity (PSR sort gate)', 'high polyreactivity'),
  ('QVQLVESGGGLVQAGGTLRLSCAASGSTFEYYAMGSYRQAPGKEREFVAAISSGPSTTYADSVKGRFTISRDNSKNTVYLQMNSLKPEDTAVYYCARRDGTTQALFGYDYWGQGTQVTVSS', 'polyreactivity (PSR sort gate)', 'low polyreactivity'),
  ('QVQLVESGGGLVQAGGSLRLSCAASGIIFDHNAMGWYRQAPGKERELVAAISTGGGNTYYADSVKGRFTISRDNAKNTVYLQMNSLKPEDTAVYYCATEPGYSYLTSYKYVYWGQGTQVTVSS', 'polyreactivity (PSR sort gate)', 'low polyreactivity'),
  ('QVQLVESGGGLVQAGGSLRLSCAASGSIFVHYALGWYRQAPGKERELVAAITVTGGTTYYADSVKGRFTISRDNAKNTVYLQMNSLKPEDTAVYYCATRANDGGWTQFGHGYDYWGQGTQVTVSS', 'polyreactivity (PSR sort gate)', 'low polyreactivity'),
  ('QVQLVESGGGLVQAGGSLRLSCAASGSIFYSNAMGWYRQAPGKERELVAAITWSGGSTYYADSVKGRFTFSRDNAKNTVYLQKNSLKPEDTSVYYCNARRNVRQTFGYEDWGQGTQVTVSS', 'polyreactivity (PSR sort gate)', 'high polyreactivity'),
  ('QVQLVESGGGLVQAGGSLRLSCAASGFTIASNAMGWYRQAPGKERELVAAIRRSGSRTYYADSVKGRFTISRDNAKNTVYLQMNSLKPEDTAVYYCAVVSPRQSYYYWGQGTQVTVSS', 'polyreactivity (PSR sort gate)', 'high polyreactivity'),
  ('QVKLLESVGGLVQAGGSLRLSCMASGSILGDRMSWYRQPPGKEHELVATIYDGGITYYADSMKGRFTISRDNAKNTVYLQMNSLRPEDTAVYYCGASLEGYRYHVYCGQGTQVTVSS', 'polyreactivity (PSR sort gate)', 'low polyreactivity'),
  ('QVQLVESGGGLVQAGGSLRLSCAASGRTFLSNAMGWYRQAPGKERELVADITFRGGNTYYADSVKGRFTISRGNAKNTVYLQMNSLKPEDTAVYYCAVLGYGRLSRVRYGYWGQGTQVTVSS', 'polyreactivity (PSR sort gate)', 'high polyreactivity'),
  ('QVQLVESGGGLVHAGGSLRLSCAASGRTFWTYAMGWYRQAPGKERELVAAISSGGSTYYADSVKGRFTISRDNAKNTVYLQMNSLKPEDTAVYYCATRVYGGYGYWGQGTQVTVSS', 'polyreactivity (PSR sort gate)', 'high polyreactivity'),
  ('QVQHVESGGGLVHPGGILRLSCAASGLTFGRNAMGWYRQAPGKERELVAAISRSGGRTSYADSVKGRLTISRDNAKNTVYLQMNSLKPEDTAVYYCAARSPIYRTTYDYWGQGTQVTVSS', 'polyreactivity (PSR sort gate)', 'high polyreactivity'),
  ('QDQLVESGGGLVQAGGSLRLSCAASGRTFPGYAMGWYRQAPGKERELVATSTVSDGSTYYADSVKGRFTISRDNAMNTVYLHMNSLIAEDTAVYYCAKDGGRKRSYSDFDYWRQGTQVTVSS', 'polyreactivity (PSR sort gate)', 'low polyreactivity'),
  ('QVQLVESGGGLVQAGGSLRLSCAASGITFTRNVMGWYRQAPGKERELVAAISGSGGSTYYADSVKGRFTISRDNEKNTVYLQMNSLKTEDTAVYYCAARSRGGRRYDYWGQGTQVTVSS', 'polyreactivity (PSR sort gate)', 'high polyreactivity');
